TARGET_ENTITY: His tagged full-length PTPN1 protein (Homo sapiens, UniProt P18031)
Construct: made in house
Sequence (P18031 with tags, fused parts or gaps): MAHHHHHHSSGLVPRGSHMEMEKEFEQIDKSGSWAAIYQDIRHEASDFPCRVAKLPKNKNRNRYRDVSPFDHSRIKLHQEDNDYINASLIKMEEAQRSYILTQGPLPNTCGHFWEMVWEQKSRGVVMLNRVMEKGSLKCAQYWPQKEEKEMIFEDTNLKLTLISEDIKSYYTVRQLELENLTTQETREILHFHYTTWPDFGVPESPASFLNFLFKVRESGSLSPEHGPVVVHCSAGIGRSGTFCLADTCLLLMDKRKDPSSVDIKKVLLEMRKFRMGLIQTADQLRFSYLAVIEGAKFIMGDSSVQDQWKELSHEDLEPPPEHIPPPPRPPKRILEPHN
PROTOCOL_SUMMARY: Mobility shift assay (MSA) to determine potency of PTPN1 inhibitors
Assay type: biochemical
MEASUREMENT_SETUP: 0.5 nM enzyme, 2 μM substrate
Procedure: Compound activity was determined using in house His tagged full-length PTPN1 protein (SEQ ID NO: 3) in an in vitro enzymatic reaction. The enzymatic assay used to determine activity is a mobility shift assay using a LabChip EZ Reader by Caliper Life Sciences. The enzymatic reaction was carried out in assay buffer (50 mM HEPES pH 7.5, 1 mM EGTA, 10 mM EDTA. 0.01% Tween® 20, and 2 mM DTT). […]
Each item that follows carries a reported IC50.

IC50 for `N[C@@H]1CCc2cc(O)c(N3CC(=O)NS3(=O)=O)c(F)c2C1` ?
> 100 nM

IC50 for `O=C1CN(c2c(O)cc3c(c2F)CN(C(=O)NCC2CC2)CC3)S(=O)(=O)N1` ?
1 to 10 nM

IC50 for `C[C@H](N)CN1CCc2cc(O)c(N3CC(=O)NS3(=O)=O)c(F)c2C1` ?
10 to 100 nM

Note: attention shifts to another entry.
IC50 for O=C1CN(c2c(O)cc3c(c2F)C[C@H](NCCC2(C(F)(F)F)CC2)CC3)S(=O)(=O)N1 (single isomer, unassigned) ?
< 1 nM
